system: SW480; assay: TCF/Wnt firefly luciferase reporter signal relative to plate median (fraction of plate median); higher = higher Wnt reporter signal; details: 5 µM; treatment time 24 h; reporter: 7TFP
This section presents molecules with their documented TCF/Wnt firefly luciferase reporter signal values.
Number, no unit, nothing else.

Answered cases to consult:
molecule: CC(=O)O[C@@H]1C=C[C@]2(C)C(C[C@@H](OC(C)=O)[C@]3(C)C4=CC(=O)O[C@H](c5ccoc5)[C@@]4(C)CCC23)C1(C)C (some centres undefined)
readout.number: 1.12
//
molecule: C[C@@H]1NC(=O)[C@H](Cc2ccccc2)NC1=O [cyclo(alanylphenylalanyl)]
readout.number: 1.04
//
molecule: Cc1onc(-c2c(Cl)cccc2Cl)c1C(=O)N[C@@H]1C(=O)N2[C@@H]1SC(C)(C)[C@@H]2C(=O)O
readout.number: 1.15

Per the records, this molecule ( COc1ccc(C2CC(=O)c3ccc(OC)cc3O2)cc1 (centres undefined) ) has TCF/Wnt firefly luciferase reporter signal equal to 0.901

----------
Reported TCF/Wnt firefly luciferase reporter signal values follow for various compounds
tested on: SW480; experiment: TCF/Wnt firefly luciferase reporter signal relative to plate median (fraction of plate median); higher = higher Wnt reporter signal; conditions: 5 µM; treatment time 24 h; reporter: 7TFP
Field format: numeric only.

compound: CCCCOc1cc(C(=O)NCCN(CC)CC)c2ccccc2n1
readout.number: 0.964
//
compound: N=c1ccn2c(n1)O[C@H]1[C@H](O)[C@@H](CO)O[C@H]12
readout.number: 1.1
//
compound: CCN(CC)CCNC(=O)COc1ccc(OC)cc1
readout.number: 1.02

Sure, the documented TCF/Wnt firefly luciferase reporter signal for "CN(C)c1ccc(C(=C2C=CC(=[N+](C)C)C=C2)c2ccc(N(C)C)cc2)cc1" is 0.465

----------
test system: SW480; experiment: TCF/Wnt firefly luciferase reporter signal relative to plate median (fraction of plate median); higher = higher Wnt reporter signal; conditions: 5 µM; treatment time 24 h; reporter: 7TFP
Reported TCF/Wnt firefly luciferase reporter signal is given for each of the following compounds.
Keep the answer to the number alone.

compound: N=C(N)NC(=O)c1nc(Cl)c(N)nc1N
readout.number: 1

Response field TCF/Wnt firefly luciferase reporter signal (SW480) for item "Nc1ccc(S(=O)(=O)O)cc1.Nc1ccc(S(=O)(=O)O)cc1.[Zn]" : 1.01

Case CC(C)CC1NC(=O)C(NC(=O)c2ncccc2O)C(C)OC(=O)C(c2ccccc2)N(C)C(=O)C(C)NC(=O)C(C(C)C(C)C)N(C)C(=O)CN(C)C(=O)C2CCCN2C1=O (single isomer, unassigned; isomere) [Neoviridogrisein II (Isomere)] , SW480, TCF/Wnt firefly luciferase reporter signal recorded as 0.937

SW480 data for CC(=O)O[C@@H]1CC(=O)[C@@]2(C)C(CC(=O)[C@]3(C)C2CC[C@@]2(C)[C@H](c4ccoc4)OC(=O)C4OC423)C1(C)C (stereo partly drawn) ; its TCF/Wnt firefly luciferase reporter signal: 1.05

The value of TCF/Wnt firefly luciferase reporter signal recorded for "C/C=C/C1=CC(=O)[C@@H](O)[C@@H]1O" when tested on SW480 reads 1.1

Form: item CC(C)(C(=O)O)c1ccc(C(O)CCCN2CCC(C(O)(c3ccccc3)c3ccccc3)CC2)cc1 (stereo not drawn) ; test system SW480; TCF/Wnt firefly luciferase reporter signal: 1.13

Field TCF/Wnt firefly luciferase reporter signal (system: SW480) for entry "CCOC(=O)NNc1nncc2ccccc12" = 0.784

Tested system SW480; TCF/Wnt firefly luciferase reporter signal recorded for "O=c1[nH]cc(F)c(=O)[nH]1" was 0.969

----------
test system: DLD1; test: TCF/Wnt firefly luciferase reporter signal relative to plate median (fraction of plate median); higher = higher Wnt reporter signal; conditions: 5 µM; treatment time 24 h; reporter: 7TFP
Reported TCF/Wnt firefly luciferase reporter signal values for the following molecules.
Give a plain numeric answer without units written out.

molecule: O=S(=O)(O)CCS
readout.number: 1.01
--
molecule: C1CCN2C[C@@H]3C[C@@H](CN4CCCC[C@@H]34)[C@H]2C1
readout.number: 1.16
--
molecule: COc1cc(/C=C/C(=O)O)ccc1O [Ferulic acid (Biofocus)]
readout.number: 0.962
--
molecule: COc1cc(O)ccc1C(C)=O
readout.number: 0.889
--
molecule: C#CCCCCCCCCCCCc1ccco1
readout.number: 1.15

TCF/Wnt firefly luciferase reporter signal reading for CCC1(C)OC(=O)N(C)C1=O (stereo unspecified) : 0.965

// TCF/Wnt firefly luciferase reporter signal value for "COc1ccc2cc1Oc1ccc(cc1)C[C@H]1c3cc(c(OC)cc3CCN1C)Oc1c(OC)c(OC)cc3c1[C@H](C2)N(C)CC3" : 0.948

TCF/Wnt firefly luciferase reporter signal measured on "Nc1nc(=O)c2[nH]c(=O)cnc2[nH]1" = 0.981

The molecule identified as "Cc1cc(O)c2c(c1O)C(=O)c1c(O)cc(C)c(O)c1C2=O" registered its TCF/Wnt firefly luciferase reporter signal at 0.964

Sure, the documented TCF/Wnt firefly luciferase reporter signal for "CC(=O)O[C@]1(C)CC[C@@]23C[C@H]1C(C)(C)[C@@H]2CC[C@H]3C" is 1.05

The value of TCF/Wnt firefly luciferase reporter signal measured for the molecule COC(=O)[C@]1(C)CCC[C@]2(C)c3ccc(C(C)C)cc3C(=O)CC12 (stereo partly specified) turned out to be 1.07

----------
Each entry below carries its recorded TCF/Wnt firefly luciferase reporter signal.
tested on: SW480; assay: TCF/Wnt firefly luciferase reporter signal relative to plate median (fraction of plate median); higher = higher Wnt reporter signal; conditions: 5 µM; treatment time 24 h; reporter: 7TFP
// keep it numeric: no unit symbol after the value

Below, each entry is followed by its recorded TCF/Wnt firefly luciferase reporter signal result.
compound: NC(=O)N1c2ccccc2C=Cc2ccccc21
readout.number: 0.937
--
compound: CCOC(=O)C1=C[C@]2(CC)CCCN3CCc4c(n1c1ccccc41)[C@@H]32
readout.number: 0.782
--
compound: COc1ccc(-c2cc(=O)c3cc(OC)ccc3o2)cc1
readout.number: 1.33
--
compound: C[C@H]1[C@H]2CC[C@H]3[C@@H]4CC=C5C[C@@H](N(C)C)CC[C@]5(C)[C@H]4CC[C@]23CN1C
readout.number: 1.05
--
compound: CS(=O)(=O)OCCCCOS(C)(=O)=O
readout.number: 0.984

TCF/Wnt firefly luciferase reporter signal reported for this compound CC(C)=CC1C(C(=O)O)C1(C)C (stereo not given) : 1.02

Entry "COC(=O)/C(=C1/OC(=O)C(c2ccccc2)=C1O)c1ccccc1" — recorded TCF/Wnt firefly luciferase reporter signal = 1.1

----------
test system: HCT116; experiment: cell viability (CellTiter-Glo) relative to plate median (fraction of plate median); higher = more viable cells; settings: 10 µM; treatment time 24 h; reporter: TCF4/Wnt
Where a name gives a salt, the structure may show the parent alone.
Please assign condition not met whenever cell viability is at or above 1, and condition met whenever it is below.

These solved cases illustrate the format of a correct answer.
compound: Cc1cc(Nc2cc(N3CCN(C)CC3)nc(/C=C/c3ccccc3)n2)n[nH]1
cat: condition met

compound: CNC(=O)c1ccccc1Sc1ccc2c(/C=C/c3ccccn3)n[nH]c2c1 [Axitinib]
cat: condition met

compound: COc1cc(Nc2ncc(F)c(Nc3ccc4c(n3)N(COP(=O)(O)O)C(=O)C(C)(C)O4)n2)cc(OC)c1OC
cat: condition met

compound: Cc1csc(-c2nnc(Nc3ccc(Oc4ncccc4-c4ccnc(N)n4)cc3)c3ccccc23)c1
cat: condition not met

compound: Cc1ccc(NC(=O)c2ccc(CN3CCN(C)CC3)cc2)cc1Nc1nccc(-c2cccnc2)n1 [Imatinib Mesylate]
cat: condition met

compound: CN(C)C/C=C/C(=O)Nc1cc2c(Nc3ccc(F)c(Cl)c3)ncnc2cc1O[C@H]1CCOC1 [Afatinib (BIBW2992)]
cat: condition met

compound: CC(C)NC[C@@H](C(=O)N1CCN(c2ncnc3c2[C@H](C)C[C@H]3O)CC1)c1ccc(Cl)cc1
cat: condition met

compound: O=c1sn(-c2cccc3ccccc23)c(=O)n1Cc1ccccc1 [Tideglusib]
cat: condition not met

compound: Cn1cc(-c2ccc3nnc(Sc4ccc5ncccc5c4)n3n2)cn1
cat: condition not met

compound: COCC(=O)NC/C=C/c1ccc2ncnc(Nc3ccc(Oc4ccc(C)nc4)c(C)c3)c2c1
cat: condition not met

# TODO verify cell viability < 1 strictly for this compound: CN1CCN(C2CCN(C(=O)Nc3cc(Oc4ccc(NC(=O)C5(C(=O)Nc6ccc(F)cc6)CC5)c(F)c4)ccn3)CC2)CC1 [Golvatinib (E7050)] condition not met

Criterion: cell viability strictly below 1. Is it met by CC(C)(C)c1cc(NC(=O)Nc2ccc(-c3cn4c(n3)sc3cc(OCCN5CCOCC5)ccc34)cc2)no1 [Quizartinib (AC220)] ? condition not met

----------
test system: SW480; experiment: TCF/Wnt firefly luciferase reporter signal relative to plate median (fraction of plate median); higher = higher Wnt reporter signal; conditions: 10 µM; treatment time 24 h; reporter: 7TFP
Entries and their measured TCF/Wnt firefly luciferase reporter signal follow.
Response field accepts a number only; no unit should be typed.

Worked examples follow.
compound: Cc1cc(Nc2nc(N[C@@H](C)c3ccc(F)cc3)c(C#N)cc2F)n[nH]1
readout.number: 0.804
//
compound: COc1ccc(-c2ccc3ncc4c(c3c2)n(-c2ccc(N3CCNCC3)c(C(F)(F)F)c2)c(=O)n4C)cn1
readout.number: 0.148
//
compound: N#Cc1c(O)c2c(-c3ccc(-c4ccccc4O)cc3)csc2[nH]c1=O
readout.number: 0.976

We next turn to a different compound, shown below.
Notebook: "CC(=O)NCC(=O)N1[C@@H]2CC[C@H]1c1ccc(Nc3ncc(C(F)(F)F)c(NC4CCC4)n3)cc12" , TCF/Wnt firefly luciferase reporter signal read as 1.21
